# Tested on: diaphorase
# measurement protocol: Formation of formazan dyes: only diaphorase and malate (TABLE 14)
# Type: biochemical, Clostridium kluyveri
# assay conditions: 3 h, mean of three experiments
value type: Absorbance, formation of formazan dyes (Means)
When you answer, write just the number.

Consider the compound O=[N+]([O-])c1ccc(-[n+]2nc(-c3ccc(S(=O)(=O)[O-])cc3S(=O)(=O)[O-])nn2-c2ccc(I)cc2)cc1.[Na+] [WST-1] and give its measured Absorbance, formation of formazan dyes (Means).
0.24

---

# System: oral lavage
# measurement protocol: Formation of formazan dyes: oral lavage and diaphorase, not malate (TABLE 11)
# Type: biochemical, human
# assay conditions: oral lavage and diaphorase, not malate; 12 h
Threshold 1: Formation of formazan dyes, absorbance, Means 12 h strictly smaller gives Yes, otherwise No.

{"columns": ["molecule", "label"],
 "data": [
  ["COc1cc([N+](=O)[O-])c(S(=O)(=O)[O-])cc1-n1nc(C(=O)Nc2ccccc2)n[n+]1-c1cc(S(=O)(=O)O)c([N+](=O)[O-])cc1OC [XTT]", "No"],
  ["O=[N+]([O-])c1ccc(-[n+]2nc(-c3ccc(S(=O)(=O)[O-])cc3S(=O)(=O)[O-])nn2-c2ccc(I)cc2)cc1.[Na+] [WST-1]", "No"],
  ["Cc1nc(-[n+]2nc(-c3cccc(OCC(=O)O)c3)nn2-c2ccc(S(=O)(=O)[O-])cc2)sc1C [MTS]", "No"]
]}

Now consider the entry below.
Could you please tell me whether Formation of formazan dyes, absorbance, Means 12 h recorded for COc1cc(-c2ccc(-[n+]3nc(-c4ccc(C(=O)N(CCS(=O)(=O)[O-])CCS(=O)(=O)[O-])cc4)nn3-c3nc4ccccc4s3)c(OC)c2)ccc1-[n+]1nc(-c2ccc(C(=O)N(CCS(=O)(=O)[O-])CCS(=O)(=O)[O-])cc2)nn1-c1nc2ccccc2s1.[Na+].[Na+] [WST-5] is less than 1?
Yes

---

# Test system: oral lavage
# measurement protocol: Formation of formazan dyes: oral lavage, malate and diaphorase (TABLE 12)
# Format: biochemical, human
# assay conditions: oral lavage, malate and diaphorase; 12 h
Reported Formation of formazan dyes, absorbance, Means 12 h values are given for each entry in this list.

{"columns": ["smiles input", "test target", "readout value"],
 "data": [
  ["COc1cc(-c2ccc(-[n+]3nc(-c4ccc(C(=O)N(CCS(=O)(=O)[O-])CCS(=O)(=O)[O-])cc4)nn3-c3nc4ccccc4s3)c(OC)c2)ccc1-[n+]1nc(-c2ccc(C(=O)N(CCS(=O)(=O)[O-])CCS(=O)(=O)[O-])cc2)nn1-c1nc2ccccc2s1.[Na+].[Na+]", "oral lavage", 1.08],
  ["O=[N+]([O-])c1ccc(-[n+]2nc(-c3ccc(S(=O)(=O)[O-])cc3S(=O)(=O)[O-])nn2-c2ccc(I)cc2)cc1.[Na+]", "oral lavage", 1.75],
  ["COc1cc([N+](=O)[O-])c(S(=O)(=O)[O-])cc1-n1nc(C(=O)Nc2ccccc2)n[n+]1-c1cc(S(=O)(=O)O)c([N+](=O)[O-])cc1OC", "oral lavage", 2.08],
  ["COc1cc([N+](=O)[O-])ccc1-[n+]1nc(-c2ccc(S(=O)(=O)[O-])cc2S(=O)(=O)[O-])nn1-c1ccc([N+](=O)[O-])cc1.[Na+]", "oral lavage", 1.33]
]}

We now examine a further compound.
So what does the record say about Formation of formazan dyes, absorbance, Means 12 h for `Cc1nc(-[n+]2nc(-c3cccc(OCC(=O)O)c3)nn2-c2ccc(S(=O)(=O)[O-])cc2)sc1C` ?
2.27
